Each entry below carries its reported EC50, Human B cells (CD83).
# assayed-system: Full length human CD40 (huCD40) on cells (human, UniProt P25942 21-277)
# Sequence (P25942 21-277): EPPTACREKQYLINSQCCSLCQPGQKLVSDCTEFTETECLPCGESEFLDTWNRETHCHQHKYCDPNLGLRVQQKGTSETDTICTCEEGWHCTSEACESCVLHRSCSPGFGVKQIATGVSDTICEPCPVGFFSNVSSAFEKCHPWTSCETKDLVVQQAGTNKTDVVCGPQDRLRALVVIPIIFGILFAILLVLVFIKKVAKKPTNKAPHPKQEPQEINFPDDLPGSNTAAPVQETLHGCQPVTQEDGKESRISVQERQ
# method-notes: cell-based or functional assay
State the answer as a number, implicitly in µg/mL.

Some binders with recorded EC50, Human B cells (CD83):
# binder, EC50, Human B cells (CD83), µg/mL
rows = [
    ("C40M9 (antibody, human IgG1, lambda, V domains shown) VH: QLQLQESGPGLVKPSEILSLTCTVSGGSISSSSYYWGWIRQPPGKGLEWIGNIYYRGDTYYSPSLKSRVTISVDTSKNQFSLKLNSVTAADTAVYYCAKGFRFDYWGQGTLVTVSS VL: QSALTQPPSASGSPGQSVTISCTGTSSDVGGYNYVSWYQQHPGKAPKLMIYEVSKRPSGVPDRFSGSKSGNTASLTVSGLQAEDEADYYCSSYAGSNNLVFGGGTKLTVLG", 0.000766),
    ("C40M18 (antibody, human IgG1, lambda, V domains shown, Full-length IgG1/lambda; from OmniRat (OMT); VH C40H48, VL C40L64) VH: EVQLVESGGGLVQPGGSLRLSCAASGFTFSSYAMSWVRQAPGKGLEWVSIINNNVGRTYYADSVKGRFTISRDNSKNTLYLQMNSLRAEDTAVYYCAKEGGDYYYYGMDVWGQGTTVTVSS VL: SYELTQPPSVSVSPGQTASITCSGDKLGDKYVCWYQQKPGQSPVVVIYQDSKRPSGIPERFSGSNSGNTATLTISGTQAMDEAYYYCQAWVSSTVVFGGGTKLTVLG", 0.0226),
    ("C40M104 (antibody, human IgG1, lambda, V domains shown, Variant of C40M18 (VH C40H48, VL C40L68; LCDR1 cysteine mutated); cloned as IgG1) VH: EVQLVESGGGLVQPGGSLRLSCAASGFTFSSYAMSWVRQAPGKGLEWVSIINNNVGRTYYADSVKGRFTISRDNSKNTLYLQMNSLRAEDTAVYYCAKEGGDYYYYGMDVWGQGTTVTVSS VL: SYELTQPPSVSVSPGQTASITCSGDKLGDKYVSWYQQKPGQSPVVVIYQDSKRPSGIPERFSGSNSGNTATLTISGTQAMDEAYYYCQAWVSSTVVFGGGTKLTVLG", 0.0167),
]

What value of measured EC50, Human B cells (CD83) is listed for C40M103 (antibody, human IgG1, lambda, V domains shown, Variant of C40M18 (VH C40H48, VL C40L69; LCDR1 cysteine mutated); cloned as IgG1) VH: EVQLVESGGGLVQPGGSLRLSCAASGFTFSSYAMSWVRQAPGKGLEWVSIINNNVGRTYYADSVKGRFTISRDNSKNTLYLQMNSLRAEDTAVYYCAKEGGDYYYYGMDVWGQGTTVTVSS VL: SYELTQPPSVSVSPGQTASITCSGDKLGDKYVSWYQQKPGQSPVLVIYQDSKRPSGIPERFSGSNSGNTATLTISGTQAMDEADYYCQAWVSSTVVFGGGTKLTVLG ? 0.00479

Each recorded value in this set is attributed to patent US20170088624A1.
